Recorded values, source PubChem BioAssay (NCI).

Tested on: TK-10 renal
Assay: NCI-60 one-dose screen, 48 h
Details: 10 µM unless noted
This is part of a sample that, as a whole, favours compounds with a hit. Of some 83,000 tested, about 20% had one in any assay. Active and inactive are the calls of the source. How the source made its calls: active means growth percent below 10; inactive means the rest.
Outcomes: active, inactive

COMPOUND	GROUP LABEL
CCCN=C(N)c1ccc(NC(=O)c2ccc(C(=O)Nc3ccc(C(N)=NCCC)cc3)cc2)cc1	inactive
C/C(=C(/c1ccccc1)c1ccc(OCC(O)CN2CCOCC2)cc1)c1ccccc1 (stereo unspecified)	inactive
CCCCCCN(C)Cc1ccc(OCCOc2ccc(CN(C)CCCCCC)cc2)cc1	inactive
CCCCCCCCOc1ccc(/C=N/Nc2cc(C)nc3ccc(Cl)cc23)cc1	active
Cc1cccc(Oc2ccc(Nc3ncnc4ccc(NC(=O)CN(C)C)cc34)cc2Cl)c1	inactive
Nc1cc(N)c2cccnc2c1O	inactive
COc1ccc(/C(C)=N/NC(=O)CSc2nc3ccccc3c(=O)n2Cc2ccc(S(N)(=O)=O)cc2)c(OC)c1	inactive
CCN(CC)CCCC(Nc1c2ccc(Cl)cc2nc2ccc(OC)cc12)c1ccc(Cl)cc1 (stereo unspecified)	active
COc1cc2nnn3c4ncccc4c(N=O)c3c2cc1OC	inactive
CCOc1ccc(/C=N/Nc2cc(C)nc3ccc(Cl)cc23)cc1	inactive
NC(=S)N/N=C/c1ccc(OC(=O)COc2cc(Cl)c(Cl)cc2Cl)cn1	inactive
CC(Oc1ccc(C(=O)NS(=O)(=O)C(C)(C)C)cc1C(F)(F)F)c1ccc(Oc2ccccc2)cn1 (stereo unspecified)	inactive
CCCCCOc1ccc(/C=N/Nc2cc(C)nc3ccc(Br)cc23)cc1	inactive
COc1ccc(CNC(=O)COc2ccc(/C=N/Nc3nc4ccccc4s3)cc2)cc1	inactive
O=C1c2cccnc2C(=O)c2nc3cc(N4CCN(C5CC5)CC4)ccc3nc21	active
O=C(O)C(/C=C/c1ccco1)=N\Nc1nc(-c2ccc(Cl)cc2)cs1	inactive
O=C1Nc2c(ccc(Cl)c2Cl)/C1=C/c1ccccn1	inactive
CCCCCN1C=C/C(=C\C(=O)N(C)c2ccc(Br)cc2)c2ccccc21	inactive
COc1ccc(-c2c(-c3ccccc3)noc2N)cc1OC	inactive
COc1cc(/C=N/NC(=O)c2ccccc2Nc2cccc(C(F)(F)F)c2)ccc1O	inactive
O=C(Nc1nc(-c2ccc(Br)cc2)cs1)c1cc(-c2ccc(Br)cc2)nc2ccc(Cl)cc12	inactive
